test system: RARg homodimer (NR concentration 270 nM); assay: PBM binding z-score (relative to random genomic background probes); higher = stronger binding; sequences stand for … in GC…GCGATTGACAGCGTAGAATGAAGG
Each entry gets N if its PBM binding z-score stays under 4, and Y if its PBM binding z-score is 4 or above.

| primary_sequence | assigned_category |
| --- | --- |
| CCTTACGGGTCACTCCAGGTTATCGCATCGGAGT | Y |

Q: For this sequence, is measured PBM binding z-score 4 or higher? "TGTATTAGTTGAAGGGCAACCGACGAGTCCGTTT"
A: N

Q: Quick one: "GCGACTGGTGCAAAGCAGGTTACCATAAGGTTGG"
A: N

Q: Quick one: "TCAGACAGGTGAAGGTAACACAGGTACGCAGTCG"
A: N

Q: Quick one: "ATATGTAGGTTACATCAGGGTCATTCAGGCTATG"
A: N

Q: Quick one: "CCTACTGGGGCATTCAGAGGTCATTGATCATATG"
A: N
